The reader will find GI50 measurements below, all made with MDA-MB-435.

{"MOLECULE": "CCOC(=O)c1c(C)n2c(=O)cc(C)c3c(OC(C)=O)c(OC(C)=O)cc1c32", "PARAMETER MEASURED": "GI50", "OBSERVED MEASUREMENT": "5.76 µM"}
{"MOLECULE": "CCOC(=O)C1=C(C)NC2SC(=O)/C(=C\\c3ccccc3)N2C1c1ccccc1 (stereo not given)", "PARAMETER MEASURED": "GI50", "OBSERVED MEASUREMENT": "> 100 µM"}
{"MOLECULE": "Clc1ccc(-c2nn3ncccc3c2-c2ccnc(Nc3ccccc3)n2)cc1", "PARAMETER MEASURED": "GI50", "OBSERVED MEASUREMENT": "10.1 µM"}
{"MOLECULE": "COc1cc2c3c(n(CCN(C)C)c(=O)c2cc1OC)-c1cc2c(cc1C3=O)OCO2", "PARAMETER MEASURED": "GI50", "OBSERVED MEASUREMENT": "6.08 µM"}

State GI50 on MDA-MB-435. Entry: COc1ccc(/C=C/c2cc(N3CCOCC3)c3cc(F)c(F)cc3n2)cc1OC
1.54 µM

====

As shown below, each of these molecules has a reported TGI value.
- Test system: DU-145 prostate
- PROTOCOL DESCRIPTION: NCI tumour cell line growth inhibition, 48 h
Give just the numeric value; µM need not be written.

{"MOLECULE": "CNC(C)C(=O)N[C@H](C(=O)N1CCC[C@@H]1CN(CCc1ccccc1)C(=O)C(F)(F)F)[C@H](C)OCC#CC#CCO[C@H](C)[C@H](NC(=O)[C@H](C)NC)C(=O)N1CCC[C@H]1CN(CCc1ccccc1)C(=O)C(F)(F)F (some centres undefined)", "TARGET UNDER TEST": "DU-145 prostate", "PARAMETER MEASURED": "TGI", "UNIT ANNOTATION": "µM", "OBSERVED MEASUREMENT": 3.05}

Quote TGI reported for COc1cccc(C2C3=C(COC3=O)N(CCO)c3cc4c(cc32)OCCO4)c1 (centres undefined) please.
0.65

Quote TGI reported for COc1c(CNC(=O)CCl)cc2[nH]c(C)cc2c1CNC(=O)CCl please.
19.7

====

- System: UACC-257 melanoma
- PROTOCOL DESCRIPTION: NCI tumour cell line growth inhibition, 48 h
PARAMETER MEASURED: TGI

Example compounds with recorded TGI:
{"COMPOUND": "N#CC(C#N)=CSc1ccccc1", "TGI": "> 100 µM"}
{"COMPOUND": "COc1ccc(Cc2cnc(NC(=O)c3sc4ccccc4c3Cl)s2)cc1", "TGI": "> 100 µM"}
{"COMPOUND": "O=c1cc(CC(O)(C(F)(F)Cl)C(F)(F)Cl)[nH]n1-c1ccccc1", "TGI": "> 100 µM"}
{"COMPOUND": "O=c1c2cc(Br)cc(Br)c2[nH]c(=S)n1-c1ccccc1", "TGI": "> 100 µM"}

Quote TGI reported for CCc1c(Cl)nc(Cl)nc1Cl please.
2.79 µM

Quote TGI reported for Cc1cc2c(cc1C)[n+](=O)c(N1CCN(c3ccc([N+](=O)[O-])cc3)CC1)c(C#N)n2[O-] please.
> 100 µM

====

- Test system: BT-549 breast
- PROTOCOL DESCRIPTION: NCI tumour cell line growth inhibition, 48 h
As shown below, each of these molecules has a reported TGI value.
Give just the numeric value; µM need not be written.

{"MOLECULE": "O=C1c2ccccc2C(=O)N1CCCCCCNOCCCN1C(=O)c2ccccc2C1=O", "TARGET UNDER TEST": "BT-549 breast", "TGI (µM)": 85.4}
{"MOLECULE": "O=C(c1cccs1)c1c(C(F)(F)F)n([O-])c2ccc(F)cc2[n+]1=O", "TARGET UNDER TEST": "BT-549 breast", "TGI (µM)": 2.6}
{"MOLECULE": "COc1ccc(N2C(=O)/C(=C\\c3cccc(Oc4ccccc4)c3)S(=O)(=O)C2c2ccccc2)cc1 (centres undefined)", "TARGET UNDER TEST": "BT-549 breast", "TGI (µM)": 91.7}
{"MOLECULE": "CC(=O)OC[C@]12CC[C@@H]([C@@H](C)C(N)=O)[C@@H]1[C@H]1CC[C@@H]3[C@@]4(C)CC[C@H](OC(C)=O)C(C)(C)[C@@H]4CC[C@@]3(C)[C@]1(C)CC2", "TARGET UNDER TEST": "BT-549 breast", "TGI (µM)": 22.6}

Turning now to a further molecule:
Quote TGI reported for CCOC(=O)c1cc2c([nH]1)C(=O)CC1=C2CCN1Cc1ccccc1 please.
38.3

====

- Tested on: OVCAR-3 ovarian
- PROTOCOL DESCRIPTION: NCI tumour cell line growth inhibition, 48 h
As shown below, each of these compounds has a reported TGI value.

Example compounds with recorded TGI:
{"COMPOUND": "Cc1c[nH]c(C(=O)O)c1-c1ccc2c(-c3ccccc3)nc3ccccc3n12", "TGI": "37.4 µM"}
{"COMPOUND": "COc1c2c(cc3c(CCc4ccccc4)cc(=O)oc13)CCC(C)(C)O2", "TGI": "> 100 µM"}
{"COMPOUND": "CCC1CC(=O)N(SCC(N)C(=O)O)C1=O (stereo not given)", "TGI": "> 100 µM"}
{"COMPOUND": "N#CC(C#N)=CSc1ccccc1", "TGI": "> 100 µM"}
{"COMPOUND": "COc1ccc(N[C@H](CS(=O)c2ccc(C)cc2)C(F)(F)C(F)(F)F)cc1 (stereo not given in full)", "TGI": "> 100 µM"}
{"COMPOUND": "C#CCNC(=O)CC[C@]1(C)[C@H]2CC[C@@H]3[C@@H]([C@@](C)(O)CCC=C(C)C)CC[C@@]3(C)[C@]2(C)CC[C@H]1C(=C)C", "TGI": "89.9 µM"}
{"COMPOUND": "[N-]=[N+]=Nc1c([N+](=O)[O-])c(Cl)nc2ccccc12", "TGI": "2.86 µM"}
{"COMPOUND": "CCOC(=O)c1cc(C2CCN(Cc3ccccc3)C2=O)c(C(=O)C(=[N+]=[N-])C(C)=O)[nH]1 (stereo not given)", "TGI": "> 100 µM"}
{"COMPOUND": "CC1(C)CCc2cc3c(-c4ccccc4)cc(=O)oc3cc2O1", "TGI": "> 100 µM"}

Turning now to a further compound:
Quote TGI reported for O=c1c2ccccc2c(=O)c2c1cc(Cl)c1[nH]c3c([nH]c12)c(Cl)cc1c(=O)c2ccccc2c(=O)c13 please.
> 100 µM

====

- Test system: PC-3 prostate
- PROTOCOL DESCRIPTION: NCI tumour cell line growth inhibition, 48 h
PARAMETER MEASURED: TGI (µM)
Give just the numeric value; µM need not be written.

{"COMPOUND": "CC1=C([Se]CC(OC(=O)[C@@H](CO)NC(=O)OC(C)(C)C)C(=O)NC(C)(C)C)C(=O)c2ccccc2C1=O (stereo not given in full)", "OBSERVED MEASUREMENT": 2.85}
{"COMPOUND": "[N-]=[N+]=Nc1c([N+](=O)[O-])c(Cl)nc2ccccc12", "OBSERVED MEASUREMENT": 4.75}
{"COMPOUND": "c1ccc2sc(C3(N4CCCCC4)CCCCCC3)cc2c1", "OBSERVED MEASUREMENT": 29.3}
{"COMPOUND": "CC1OC(OC2CC(O)C3(CO)C4C(O)CC5(C)C(C6=CC(=O)OC6)CCC5(O)C4CCC3(O)C2)C(O)C(O)C1O (stereo not given)", "OBSERVED MEASUREMENT": 0.0437}

Quote TGI reported for C=C(C)[C@@H]1CCC2=C[C@@H](OC2=O)[C@@H](C(=C)C)C(=O)/C=C(/C)C(=O)C1 please.
39.3

Quote TGI reported for O=C1/C(=C\c2coc3ccccc3c2=O)c2ccccc2N1c1c(Cl)cccc1Cl please.
30.5

Quote TGI reported for O=C1C(Cl)=C(Nc2cccc(O)c2)C(=O)N1c1ccc(Cl)c(Cl)c1 please.
49.6

====

- System: TK-10 renal
- PROTOCOL DESCRIPTION: NCI tumour cell line growth inhibition, 48 h
As shown below, each of these compounds has a reported TGI value.

Quote TGI reported for COC(=O)C1CCC(Nc2cccc(C(F)(F)F)c2)=N1 (stereo not drawn) please.
> 100 µM

====

- Tested on: MDA-N
- PROTOCOL DESCRIPTION: NCI tumour cell line growth inhibition, 48 h
As shown below, each of these compounds has a reported TGI value.

Example compounds with recorded TGI:
{"COMPOUND": "CC(=O)OCC12C(OC(C)=O)C[C@@H](C)C3(CC(c4ccoc4)OC3=O)C1CCC(O)C21CO1 (stereo not given in full)", "TARGET UNDER TEST": "MDA-N", "TGI": "> 100 µM"}
{"COMPOUND": "Cc1ccc(CS(=O)(=O)C/N=c2\\sc3ccccc3nc2/C=C(\\O)c2ccc(Cl)cc2)cc1", "TARGET UNDER TEST": "MDA-N", "TGI": "> 10 µM"}
{"COMPOUND": "CN(C)CC(CO)(CN(C)C)CN(C)C", "TARGET UNDER TEST": "MDA-N", "TGI": "> 100 µM"}

Quote TGI reported for O=C(CCCc1ccccn1)c1ccccc1 please.
> 100 µM

Quote TGI reported for COc1ccc2c(=O)c3cc([N+](=O)[O-])ccc3n(C)c2c1 please.
> 100 µM

Quote TGI reported for O=C(CCc1ccc(O)c(O)c1)NCCc1cc(OCc2ccccc2)cc(OCc2ccccc2)c1 please.
29.2 µM

Quote TGI reported for CCCC(=O)OC[n+]1cccc(-c2c(COC(=O)NC(C)C)c(COC(=O)NC(C)C)c3n2CCC3)c1 please.
> 100 µM

Quote TGI reported for O=c1cc(-c2ccccc2)oc2ccc(Oc3nnnn3-c3ccccc3)cc12 please.
> 100 µM

Quote TGI reported for CC(C)CC(=O)NC(NC(C)C)(C(F)(F)F)C(F)(F)F please.
> 100 µM

Quote TGI reported for O=C1NC(=O)C(C(c2ccc(Cl)cc2)C2C(=O)NC(=O)NC2=O)C(=O)N1 please.
> 100 µM
